measured-target: Alpha-bungarotoxin (Bungarus multicinctus)
method-notes: compounds binding labelled alpha-BTX control protein – biochemical, small-molecule microarray, Alexa647 label, 635/667 nm fluorescence, artefact control for SMM control protein annotation, profiling panel (AID 1117)
condition-summary: alpha-BTX-A647 binding fluorescence, higher = more signal
measured-metric: composite z-score

[[record]]
compound = "O=C(O)C1N=C(c2ccc(OCCCO)cc2)N(c2ccccc2)O1 (stereo not given)"
measured_metric = "composite z-score"
recorded_value = 0.447

[[record]]
compound = "CCOC(=O)C1=CC[C@H]2C(=O)N(c3ccccc3)C(=O)[C@@H]12"
measured_metric = "composite z-score"
recorded_value = 0.203

[[record]]
compound = "C=CCNC(=O)[C@H]1[C@@H]2C(=O)O[C@@H](c3ccccc3)[C@@H](c3ccccc3)N2[C@@H](c2ccc(O)cc2)[C@]12C(=O)Nc1ccc(C#CCCO)cc12"
measured_metric = "composite z-score"
recorded_value = -0.503

[[record]]
compound = "CCOC(=O)C[C@H]1[C@H](OC(=O)c2ccc(C(=O)c3ccccc3)cc2)[C@@H](NC(=O)Cc2ccc(OC)cc2)c2cc(OCCCO)ccc2N1C(=O)c1ccc2ccccc2n1"
measured_metric = "composite z-score"
recorded_value = 0.738

[[record]]
compound = "CCCCN1CC=CC23O[C@@H]4C=CCCOC(=O)C4[C@H]2C(=O)N(CCCCCO)[C@@H]3C1=O (stereo not given in full)"
measured_metric = "composite z-score"
recorded_value = 0.0086

[[record]]
compound = "C[N+](C)(C)CCCC[C@@H]1NC(=O)[C@@H]2C[C@H](C(=O)NCCCCCN)[C@H](c3ccc(O)cc3)N2C1=O"
measured_metric = "composite z-score"
recorded_value = 2.13

[[record]]
compound = "O=C(CS)NCCCCCNC(=O)[C@H]1C[C@H]2C(=O)NCC(=O)N2[C@H]1c1ccc(O)cc1"
measured_metric = "composite z-score"
recorded_value = -0.129

[[record]]
compound = "CN(C)C(=O)[C@]1(Cc2ccccc2)N=C(c2ccc(OCCCO)cc2)O[C@@H]1c1ccccc1N=[N+]=[N-]"
measured_metric = "composite z-score"
recorded_value = 1.37

[[record]]
compound = "COc1ccc([Si](C)(C)[C@@H]2[C@@H](CC(=O)N3CCC[C@H]3CO)O[C@]3(C(=O)N(Cc4cccc(I)c4)c4ccccc43)[C@H]2C)cc1"
measured_metric = "composite z-score"
recorded_value = 0.181

[[record]]
compound = "CC(C)C(=C=CC[C@H](O)c1ccc(CO)o1)CCO"
measured_metric = "composite z-score"
recorded_value = 0.963

[[record]]
compound = "Cc1ccc(S[C@]2(C(=O)NCC(C)C)CC(=O)N(Cc3cc(C(F)(F)F)cc(C(F)(F)F)c3)[C@@H]2c2ccc(CO)cc2)cc1"
measured_metric = "composite z-score"
recorded_value = -0.0201

[[record]]
compound = "COc1ccc(CCNC(=O)[C@@]2(C)c3ccccc3C(=O)N(c3ccc(C)cn3)[C@H]2c2ccc(CO)cc2)cc1"
measured_metric = "composite z-score"
recorded_value = -0.438

[[record]]
compound = "C#CCN1[C@H](/C=C/C2CC2)[C@H](Cc2ccccc2)OC(=O)[C@@H]1Cc1ccccc1"
measured_metric = "composite z-score"
recorded_value = 0.106

[[record]]
compound = "[N-]=[N+]=NCc1ccccc1[C@@H]1OC(c2ccc(OCCCO)cc2)=N[C@]1(CCS(=O)(=O)c1ccccc1)C(N)=O"
measured_metric = "composite z-score"
recorded_value = 2.19

[[record]]
compound = "COc1ccc(C#Cc2ccc3c(c2)[C@]2(C(=O)N3)[C@H](c3ccc(O)cc3)N3[C@H](c4ccccc4)[C@H](c4ccccc4)OC(=O)[C@H]3[C@@H]2C(=O)N2CCc3cc(OC)c(OC)cc3C2)cc1"
measured_metric = "composite z-score"
recorded_value = 1.67

